The reported measurements were obtained from ChEMBL document CHEMBL3988442.

Quick reference for Percent Effect among some compounds
Species on record: Homo sapiens
Test: To identify inhibition of the IFN signalling (Jak-Stat) pathway via expression of an eGFP reporter gene under the control of an IFN-stimulated response element (ISRE) containing MxA promoter.
Format: functional
Set-up: scale not given: direction of the effect not stated beside the values
Conditions: 30 µM
Please reply with the bare figure in % and do not write the unit itself.

Study these solved cases before continuing.
>>> df
                                   compound   endpoint_name  units_text  result_value
0  NC(=O)C1CCN(C(=O)Cn2nc(-c3ccccc3)oc2=O)C1 (configuration not stated)  Percent Effect           %         -30.7
1     COc1cccc(N2CCN(CCC(=O)NC3CCCC3)CC2)c1  Percent Effect           %          4.41
2  CNC(=O)[C@@H]1C[C@H]2CN(C(=O)c3ccco3)C[C@H]2N1C  Percent Effect           %         -3.26

Please find the next compound below.
Identify measured Percent Effect corresponding to Cc1occc1C(=O)N1CCC2(CC1)C(c1cnn(C)c1)CC(=O)N2C (configuration not stated) 15.9
